Hey, just so you know, these numbers are from paper PMC12040169.

Recorded measurements of viability at 28.5 h, 10 µM, one per entry
Assay: in vitro
Conditions: human, hela cells, % viability
Could you give me the number in %? Just the number is fine.

For orientation, consider the following solved cases.
O=C(N[C@H]1CCN2C(=O)c3cc(-c4cccs4)ccc3NC(=O)[C@H]12)c1cccs1 : 91.8
COc1ccc(CC(=O)N2CCCCC2c2ccc(Cc3cccc(F)c3)nc2)cc1 (stereo not drawn) : 90.3
COC(=O)c1ccc(OCc2nnn[nH]2)cc1 : 88.7

q: // returns reported viability at 28.5 h, 10 µM for input Cc1ccc(CCC(=O)NNc2ccccc2)o1
a: 90.5

q: Look up viability at 28.5 h, 10 µM for this compound: CCCc1csc(C2CN3CCCC3CO2)n1 (stereo not drawn)
a: 88.3

q: Looking for the measured viability at 28.5 h, 10 µM of COc1ccc(F)cc1-c1ccccc1CC1(C(=O)NCc2cccs2)CCOCC1 , can you help?
a: 93.7

q: For the compound shown here, CCOC(=O)Cn1ncc2c3sc(C)cc3n(CC)c2c1=O , give the reported viability at 28.5 h, 10 µM.
a: 87.1

q: Name the reported viability at 28.5 h, 10 µM value associated with the compound CCOc1ccccc1C(=O)N1CCC(Cc2cccc(-c3cccs3)c2)(C(N)=O)CC1
a: 84.9

q: Given CCCC/C=C/c1cnc2[nH]c(=O)n([C@H](C)c3ccccc3)c2n1 , state its recorded viability at 28.5 h, 10 µM.
a: 99.7
